- System: 941728-121-R-J1-PDC complex spheroid viability;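 further: spheroids exposed to compounds for 7 days before readout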
- assay_procedure: Anticancer human tumor 941728-121-R-J1-PDC patient-derived lung adenocarcinoma cell line growth inhibition [RAS]
- measurement_context: second compound 10 µM; first compound 0.1 µM; stronger effect = lower value
Lab note: compare viability, T/C with 20%, writing rule met if less and rule not met if equal or more.

[[record]]
compound = "CC(=O)OC12COC1CC(O)C1(C)C(=O)C(O)C3=C(C)C(OC(=O)C(O)C(NC(=O)OC(C)(C)C)c4ccccc4)CC(O)(C(OC(=O)c4ccccc4)C21)C3(C)C (centres undefined) + C#Cc1c(F)ccc2cc(O)cc(-c3ncc4c(N5CC6CCC(C5)N6)nc(OCC56CCCN5CC(F)C6)nc4c3F)c12"
classification = "rule met"

[[record]]
compound = "C=CC(=O)Nc1cc(Nc2nccc(-c3cn(C)c4ccccc34)n2)c(OC)cc1N(C)CCN(C)C + C#Cc1c(F)ccc2cc(O)cc(-c3ncc4c(N5CC6CCC(C5)N6)nc(OCC56CCCN5CC(F)C6)nc4c3F)c12"
classification = "rule met"

[[record]]
compound = "C[C@@H](NC(=O)c1ncnc(N)c1Cl)c1ncc(C(=O)Nc2cc(C(F)(F)F)c(Cl)cn2)s1 + C#Cc1c(F)ccc2cc(O)cc(-c3ncc4c(N5CC6CCC(C5)N6)nc(OCC56CCCN5CC(F)C6)nc4c3F)c12"
classification = "rule not met"

[[record]]
compound = "CCC(CC)c1cc(NC2CCC(N)C2)n2nccc2n1 (centres undefined) + C#Cc1c(F)ccc2cc(O)cc(-c3ncc4c(N5CC6CCC(C5)N6)nc(OCC56CCCN5CC(F)C6)nc4c3F)c12"
classification = "rule not met"

[[record]]
compound = "CC(C)n1nc(-c2ccc3oc(N)nc3c2)c2c(N)ncnc21 + C#Cc1c(F)ccc2cc(O)cc(-c3ncc4c(N5CC6CCC(C5)N6)nc(OCC56CCCN5CC(F)C6)nc4c3F)c12"
classification = "rule met"

[[record]]
compound = "CC1(O)CCCC1n1c(=O)c(C(F)F)cc2cnc(NC3CCN(S(C)(=O)=O)CC3)nc21 (centres undefined) + C#Cc1c(F)ccc2cc(O)cc(-c3ncc4c(N5CC6CCC(C5)N6)nc(OCC56CCCN5CC(F)C6)nc4c3F)c12"
classification = "rule not met"

[[record]]
compound = "C=CC(=O)N1CCN(c2nc(OCC3CCCN3C)nc3c(F)c(-c4nc(N)cc(C)c4C(F)(F)F)c(Cl)cc23)C(C)C1 (centres undefined) + C#Cc1c(F)ccc2cc(O)cc(-c3ncc4c(N5CC6CCC(C5)N6)nc(OCC56CCCN5CC(F)C6)nc4c3F)c12"
classification = "rule met"

[[record]]
compound = "O=C(c1ccc(F)c(F)c1Nc1ccc(I)cc1F)N1CC(O)([C@@H]2CCCCN2)C1 + C#Cc1c(F)ccc2cc(O)cc(-c3ncc4c(N5CC6CCC(C5)N6)nc(OCC56CCCN5CC(F)C6)nc4c3F)c12"
classification = "rule met"

[[record]]
compound = "Cc1nc(N2CCC3(CC2)COC(C)C3N)c(CO)nc1Sc1ccnc(N)c1Cl (centres undefined) + C#Cc1c(F)ccc2cc(O)cc(-c3ncc4c(N5CC6CCC(C5)N6)nc(OCC56CCCN5CC(F)C6)nc4c3F)c12"
classification = "rule not met"

[[record]]
compound = "NC1c2ccccc2OC12CCN(c1cnc3c(N4CCCc5ncccc54)n[nH]c3n1)CC2 (centres undefined) + C#Cc1c(F)ccc2cc(O)cc(-c3ncc4c(N5CC6CCC(C5)N6)nc(OCC56CCCN5CC(F)C6)nc4c3F)c12"
classification = "rule met"

[[record]]
compound = "Nc1ccn(C2OC(CO)C(O)C2(F)F)c(=O)n1 (centres undefined) + C#Cc1c(F)ccc2cc(O)cc(-c3ncc4c(N5CC6CCC(C5)N6)nc(OCC56CCCN5CC(F)C6)nc4c3F)c12"
classification = "rule met"

[[record]]
compound = "CC(C)NCC(C(=O)N1CCN(c2ncnc3c2C(C)CC3O)CC1)c1ccc(Cl)cc1 (centres undefined) + C#Cc1c(F)ccc2cc(O)cc(-c3ncc4c(N5CC6CCC(C5)N6)nc(OCC56CCCN5CC(F)C6)nc4c3F)c12"
classification = "rule not met"

[[record]]
compound = "CC(Nc1ccc2c(c1)OCCn1cc(N3C(=O)OCC3C(F)F)nc1-2)C(N)=O (centres undefined) + C#Cc1c(F)ccc2cc(O)cc(-c3ncc4c(N5CC6CCC(C5)N6)nc(OCC56CCCN5CC(F)C6)nc4c3F)c12"
classification = "rule not met"


Where do the numbers come from? From PubChem BioAssay AID2060896.
